Consider the following binders; for each one, report its koff.
Target: T1, Biotinylated Human C5aR Peptide (2nd loop), peptide 23 (human, N-terminal biotin)
T1 construct: immobilised on a streptavidin sensor chip for BIACore; also called Biotinylated-Peptide 23; Biot-peptide
T1 peptide: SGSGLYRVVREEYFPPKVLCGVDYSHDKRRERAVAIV
Test: SPR (BIACore 2000), biotinylated peptide 23 on SA chip, mAb as analyte
The reply should contain only the number, in s⁻¹.

**Query** Reported koff, binder MAb 8G7 (antibody, V domains shown, Mouse monoclonal antibody from a hybridoma (ECACC 06081803); also called 8G7-M6) VH: DIQLQESGPGLVKPSQSLSLTCSVTGYSITSGHYWNWIRQLPGNKMEWMGHISNDGSNRYNPSLKNRISITRDTSKNQFFLKLNSVTTEDTATYYCALFYFAYASFAYWGQGTLVTVSA VL: DVVMTQTPLSLPVSLGDQASISCRSSQSLLHSNGNTYLHWYLQKPGQSPKLLIYKVSTRFSGVPDRFSGSGSGADFTLQISRVEAEDLGVYLCSQSTHVPPTFGAGTKLVLT : ____
**Result** 0.0059

**Query** Reported koff, binder MAb 3C5 (antibody, V domains shown) VH: DVQLQESGPGLVKPSQSLSLTCSVTGYSITSGNYWNWIRQFPGKKLEWMGHISYDGNNKYNPSLKNRISITRDTSKNQFFLRLNSVTAEDTAAYYCALFYFDYASFTYWGQGTLVTVSA VL: DVVMTQTPLSLPVSLGDQASISCRSSQSLVHSNGNTYLHWYLRKPGQSPKLLIYKVSNRFSGVPDRFSGSGSGTDFTLKISRVEAEDLGVYFCSQSTHVPPTFGAGTKLELK : ____
**Result** 0.0016

**Query** Reported koff, binder MAb 7H3 (antibody, V domains shown, Mouse monoclonal antibody from a hybridoma (ECACC 06081802); also called 7H3-N9) VH: EVKLEESGGGLVQPGGSMKLSCVASGFTFSDAWMDWVRQSPEKGLEWVAGIRNRANNHATYYVASVKGRFTVSRDDSKSSVYLQMNSLRAEDAGIYYCTRGDGYFFDYWGQGTTLTVSS VL: DVVLTQTPLSLSVSLGDQASISCRSGQSLVHSNGNTYLHWYLQKPGQSSKLLIYKVSNRLSGVPDRFSGSGSGTDFTLKISRVEAEDLGVYFCSQTTHVPPTFGGGTKLEIK : ____
**Result** 0.00995

**Query** Reported koff, binder MAb 7F3 (antibody, V domains shown) VH: QVQLQQSGPELVKPGASVKISCKASGYAFSNSWMNWVKQRPGKGLEWIGRIYPGDGDTKYNGKFKGKATLTADKSSSTAYMQLSSLTSEDSAVYFCARFLLISTVTAVDYWGQGTTLTVSS VL: DVVMTQSPLSLPVSLGNQASISCRSSQSLVHSNGNTYLHWYLQKPGQSPKLLIYKVSNRFSGVPDRFSGSGSGTDFSLKISRVEAEDLGVYFCSQSTLVPLTFGAGTKLELK : ____
**Result** 0.00045
